Listing: pIC50 of selected molecules
# Assayed Target: Histone deacetylase 5 (Homo sapiens, UniProt Q9UQL6)
# Sequence (Q9UQL6 whole entry): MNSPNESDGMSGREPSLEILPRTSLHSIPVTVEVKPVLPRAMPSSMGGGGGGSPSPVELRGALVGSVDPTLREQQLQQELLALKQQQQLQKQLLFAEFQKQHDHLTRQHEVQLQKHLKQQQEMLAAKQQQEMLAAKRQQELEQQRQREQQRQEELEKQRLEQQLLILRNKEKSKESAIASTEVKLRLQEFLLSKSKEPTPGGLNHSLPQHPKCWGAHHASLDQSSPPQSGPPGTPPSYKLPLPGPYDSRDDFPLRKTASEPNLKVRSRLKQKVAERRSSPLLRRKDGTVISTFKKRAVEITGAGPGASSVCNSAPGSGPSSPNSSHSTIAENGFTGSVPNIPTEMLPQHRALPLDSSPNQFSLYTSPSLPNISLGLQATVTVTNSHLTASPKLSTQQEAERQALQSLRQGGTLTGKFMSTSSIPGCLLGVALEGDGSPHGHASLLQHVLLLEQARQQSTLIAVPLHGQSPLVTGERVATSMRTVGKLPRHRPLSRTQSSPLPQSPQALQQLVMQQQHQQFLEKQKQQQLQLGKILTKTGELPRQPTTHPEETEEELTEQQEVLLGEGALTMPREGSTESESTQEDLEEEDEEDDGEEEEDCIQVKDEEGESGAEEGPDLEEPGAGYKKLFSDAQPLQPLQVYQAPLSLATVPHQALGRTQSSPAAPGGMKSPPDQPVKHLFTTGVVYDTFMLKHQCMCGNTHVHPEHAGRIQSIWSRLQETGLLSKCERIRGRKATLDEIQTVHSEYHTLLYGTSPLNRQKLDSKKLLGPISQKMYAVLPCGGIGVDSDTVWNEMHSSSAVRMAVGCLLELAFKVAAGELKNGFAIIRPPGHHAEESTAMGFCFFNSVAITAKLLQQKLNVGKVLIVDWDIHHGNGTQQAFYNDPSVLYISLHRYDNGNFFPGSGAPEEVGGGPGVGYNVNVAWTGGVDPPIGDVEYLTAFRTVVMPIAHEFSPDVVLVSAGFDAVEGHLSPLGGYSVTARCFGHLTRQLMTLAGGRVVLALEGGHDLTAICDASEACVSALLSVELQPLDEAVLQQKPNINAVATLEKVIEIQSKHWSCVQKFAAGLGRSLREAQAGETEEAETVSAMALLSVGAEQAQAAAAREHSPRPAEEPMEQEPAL
# Method Description: Inhibition of human recombinant HDAC5 using fluorophore-conjugated substrate Boc-L-Lys(Ac)-AMC after 60 mins
pIC50 is defined as minus the log10 of a concentration measured in mol/L.

Given Smiles	Result Number
[N-]=[N+]=NCc1cc(Cn2cc(NC(=O)CCCCCCC(=O)NO)cn2)cc(N=[N+]=[N-])c1	6.05

[Q] Which pIC50 value is on record for [N-]=[N+]=NCc1cc(N=[N+]=[N-])cc(C(=O)Nc2ccc(-c3cc(C(=O)NCCCCCCC(=O)NO)no3)cc2)c1 ?
[A] 6.03

---

# Assayed Target: Histone deacetylase 4 (Homo sapiens)
# Method Description: Inhibition of human recombinant HDAC4 using fluorophore-conjugated substrate Boc-L-Lys(Ac)-AMC after 60 mins
Measured IC50 by item
Return type: number; implicit unit nM.

Given Smiles	Assayed Target	Result Number
[N-]=[N+]=NCc1cc(Cn2cc(NC(=O)CCCCCCC(=O)NO)cn2)cc(N=[N+]=[N-])c1	Histone deacetylase 4 (Homo sapiens)	379

Turning to the following compound.
[Q] Look up IC50 for this compound: [N-]=[N+]=NCc1cc(N=[N+]=[N-])cc(C(=O)Nc2ccc(-c3cc(C(=O)NCCCCCCC(=O)NO)no3)cc2)c1
[A] 432

---

Documented pEC50 across a set of compounds
# Test system: HepG2
# Method Description: cells
# Type: functional, cell-based
# Condition Notes: Homo sapiens, HepG2, 48 h
Hey, just a heads up that pEC50 is the negative log base 10 of the concentration in molar.

Recorded results for 3 compounds are shown here.
Given Smiles	pEC50
[N-]=[N+]=Nc1ccc(Cn2cc(NC(=O)CCCCCCC(=O)NO)cn2)cc1	4.90
[N-]=[N+]=NCc1cc(Cn2cc(NC(=O)CCCCCCC(=O)NO)cn2)cc(N=[N+]=[N-])c1	4.61
O=C(CCCCCCC(=O)Nc1cnn(Cc2ccccc2)c1)NO	4.90

Then this compound:
[Q] State its pEC50 on HepG2: [N-]=[N+]=NCc1cc(N=[N+]=[N-])cc(C(=O)Nc2ccc(-c3cc(C(=O)NCCCCCCC(=O)NO)no3)cc2)c1
[A] 4.94

---

# Assayed Target: UniProt:P08254
Parameter pIC50: see the listing below.
When answering, recall that pIC50 equals minus log10 of the concentration in mol/L, and write that number alone.

Given Smiles	Assayed Target	pIC50
CNC(=O)[C@H](Cc1c[nH]c2ccccc12)NC(=O)[C@@H](CC(=O)NO)CC(C)C	UniProt:P08254	8.12

Please look at the following molecule next.
[Q] # get_value(readout='pIC50', item= [N-]=[N+]=NCc1cc(N=[N+]=[N-])cc(C(=O)Nc2ccc(-c3cc(C(=O)NCCCCCCC(=O)NO)no3)cc2)c1 )
[A] 4.92

---

# Tested on: SH-SY5Y
# Method Description: cells
# Assay type: functional, cell-based
# Condition Notes: Homo sapiens, 48 h
Parameter Measured: pEC50
Reminder that pEC50 means the negative base-10 logarithm of the concentration expressed in mol/L.

Given Smiles	Result Number
[N-]=[N+]=Nc1ccc(Cn2cc(NC(=O)CCCCCCC(=O)NO)cn2)cc1	4.63
[N-]=[N+]=NCc1cc(N=[N+]=[N-])cc(C(=O)Nc2ccc(-c3cc(C(=O)NCCCCCCC(=O)NO)no3)cc2)c1	4.49
O=C(CCCCCCC(=O)Nc1cnn(Cc2ccccc2)c1)NO	4.64

[Q] Tell me the measured pEC50 of [N-]=[N+]=NCc1cc(Cn2cc(NC(=O)CCCCCCC(=O)NO)cn2)cc(N=[N+]=[N-])c1 , please.
[A] 4.44

---

# Assayed Target: Histone deacetylase 8 (Homo sapiens, UniProt Q9BY41)
# Sequence (Q9BY41 whole entry): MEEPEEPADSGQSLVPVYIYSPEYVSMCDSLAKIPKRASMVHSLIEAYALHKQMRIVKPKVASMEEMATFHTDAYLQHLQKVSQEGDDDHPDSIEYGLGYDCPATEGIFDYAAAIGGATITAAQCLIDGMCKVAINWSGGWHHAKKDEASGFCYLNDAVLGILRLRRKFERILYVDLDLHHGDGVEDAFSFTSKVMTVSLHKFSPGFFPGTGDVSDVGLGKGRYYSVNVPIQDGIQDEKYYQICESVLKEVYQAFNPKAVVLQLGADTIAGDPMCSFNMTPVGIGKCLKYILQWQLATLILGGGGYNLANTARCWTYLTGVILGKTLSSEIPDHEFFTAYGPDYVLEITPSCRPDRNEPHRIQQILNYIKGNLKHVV
# Method Description: Inhibition of human recombinant HDAC8 using Fluor de Lys as substrate
Parameter Measured: IC50 (nM)
The reply should contain only the number, in nM.

Given Smiles	Result Number
O=C(CCCCCCC(=O)Nc1cnn(Cc2ccc([N+](=O)[O-])cc2)c1)NO	82

[Q] Could you tell me which IC50 is on file for [N-]=[N+]=NCc1cc(Cn2cc(NC(=O)CCCCCCC(=O)NO)cn2)cc(N=[N+]=[N-])c1 ?
[A] 17

[Q] Can you look up the measured IC50 of [N-]=[N+]=Nc1ccc(Cn2cc(NC(=O)CCCCCCC(=O)NO)cn2)cc1 for me?
[A] 28

[Q] What IC50 value was documented for this molecule, CC(C)(C)OC(=O)Nc1ccc(Cn2cc(NC(=O)CCCCCCC(=O)NO)cn2)cc1 ?
[A] 147

[Q] Need IC50 of [N-]=[N+]=Nc1ccc(-c2cc(C(=O)NCCCCCCC(=O)NO)no2)cc1 , thanks.
[A] 707

[Q] Requested field: IC50. Item: [N-]=[N+]=NCc1cc(N=[N+]=[N-])cc(C(=O)Nc2ccc(-c3cc(C(=O)NCCCCCCC(=O)NO)no3)cc2)c1
[A] 651

[Q] Any idea what IC50 was measured for [N-]=[N+]=NCc1cc(N=[N+]=[N-])cc(C(=O)Nc2ccc(Cn3cc(NC(=O)CCCCCCC(=O)NO)cn3)cc2)c1 ?
[A] 487

[Q] I am curious: what IC50 value has been reported for O=C(CCCCCCC(=O)Nc1cnn(Cc2ccccc2)c1)NO ?
[A] 76

---

# Assayed Target: Histone deacetylase 1 (Homo sapiens, UniProt Q13547)
# Sequence (Q13547 whole entry): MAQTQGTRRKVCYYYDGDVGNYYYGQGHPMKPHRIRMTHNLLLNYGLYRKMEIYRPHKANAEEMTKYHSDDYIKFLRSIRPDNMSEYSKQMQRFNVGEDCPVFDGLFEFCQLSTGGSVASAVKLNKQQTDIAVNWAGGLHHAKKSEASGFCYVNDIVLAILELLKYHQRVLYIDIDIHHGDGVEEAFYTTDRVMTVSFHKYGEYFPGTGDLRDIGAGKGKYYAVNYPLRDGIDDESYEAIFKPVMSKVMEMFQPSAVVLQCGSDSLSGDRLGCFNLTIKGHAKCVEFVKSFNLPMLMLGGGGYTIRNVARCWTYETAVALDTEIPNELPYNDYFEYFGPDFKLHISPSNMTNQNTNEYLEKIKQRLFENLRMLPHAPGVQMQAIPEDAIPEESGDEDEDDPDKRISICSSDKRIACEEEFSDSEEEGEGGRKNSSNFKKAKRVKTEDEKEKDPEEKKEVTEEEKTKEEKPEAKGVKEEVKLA
# Method Description: Inhibition of human recombinant HDAC1 using fluorophore-conjugated substrate Boc-L-Lys(Ac)-AMC after 60 mins
Parameter Measured: pIC50
# log scale: pIC50 equals minus log10 of the concentration in mol/L

Given Smiles	pIC50
[N-]=[N+]=NCc1cc(N=[N+]=[N-])cc(C(=O)Nc2ccc(-c3cc(C(=O)NCCCCCCC(=O)NO)no3)cc2)c1	7.09

# context switch: different compound, same pIC50
[Q] Which pIC50 value belongs to [N-]=[N+]=NCc1cc(Cn2cc(NC(=O)CCCCCCC(=O)NO)cn2)cc(N=[N+]=[N-])c1 ?
[A] 7.00

---

# Assayed Target: Histone deacetylase 11 (Homo sapiens, UniProt Q96DB2)
# Sequence (Q96DB2 whole entry): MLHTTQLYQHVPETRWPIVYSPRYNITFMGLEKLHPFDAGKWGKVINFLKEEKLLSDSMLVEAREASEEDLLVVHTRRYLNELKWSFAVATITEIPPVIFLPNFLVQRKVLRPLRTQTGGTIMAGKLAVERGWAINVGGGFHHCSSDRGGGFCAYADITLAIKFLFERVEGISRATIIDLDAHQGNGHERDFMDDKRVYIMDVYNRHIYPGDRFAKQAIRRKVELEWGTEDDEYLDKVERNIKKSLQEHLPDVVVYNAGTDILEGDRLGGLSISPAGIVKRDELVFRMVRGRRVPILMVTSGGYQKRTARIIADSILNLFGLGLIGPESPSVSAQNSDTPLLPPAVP
# Method Description: Inhibition of human recombinant HDAC11 using fluorophore-conjugated substrate Boc-L-Lys(Ac)-AMC after 60 mins
Parameter Measured: pIC50
In plain terms, pIC50 is the concentration in mol/L turned into minus its base-10 logarithm.

Given Smiles	Result Number
[N-]=[N+]=NCc1cc(N=[N+]=[N-])cc(C(=O)Nc2ccc(-c3cc(C(=O)NCCCCCCC(=O)NO)no3)cc2)c1	6.94

[Q] Reported pIC50, compound [N-]=[N+]=NCc1cc(Cn2cc(NC(=O)CCCCCCC(=O)NO)cn2)cc(N=[N+]=[N-])c1 : ____
[A] 6.32

---

# Assayed Target: Histone deacetylase 3/Nuclear receptor corepressor 2 (HDAC3/NCoR2) (Homo sapiens)
# Sequence (O15379 whole entry): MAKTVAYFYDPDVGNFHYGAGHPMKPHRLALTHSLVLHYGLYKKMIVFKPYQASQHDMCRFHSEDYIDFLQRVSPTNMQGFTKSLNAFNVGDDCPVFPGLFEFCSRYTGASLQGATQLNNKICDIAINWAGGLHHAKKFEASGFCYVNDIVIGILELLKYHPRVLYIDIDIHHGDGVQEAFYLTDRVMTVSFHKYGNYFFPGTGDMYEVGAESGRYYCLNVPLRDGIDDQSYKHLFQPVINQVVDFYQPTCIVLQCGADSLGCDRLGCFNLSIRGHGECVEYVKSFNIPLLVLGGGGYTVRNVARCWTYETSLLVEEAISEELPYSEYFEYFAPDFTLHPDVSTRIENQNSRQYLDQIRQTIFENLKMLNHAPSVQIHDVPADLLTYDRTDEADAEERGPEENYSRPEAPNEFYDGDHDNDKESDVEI
# Sequence (Q9Y618 whole entry, further chain): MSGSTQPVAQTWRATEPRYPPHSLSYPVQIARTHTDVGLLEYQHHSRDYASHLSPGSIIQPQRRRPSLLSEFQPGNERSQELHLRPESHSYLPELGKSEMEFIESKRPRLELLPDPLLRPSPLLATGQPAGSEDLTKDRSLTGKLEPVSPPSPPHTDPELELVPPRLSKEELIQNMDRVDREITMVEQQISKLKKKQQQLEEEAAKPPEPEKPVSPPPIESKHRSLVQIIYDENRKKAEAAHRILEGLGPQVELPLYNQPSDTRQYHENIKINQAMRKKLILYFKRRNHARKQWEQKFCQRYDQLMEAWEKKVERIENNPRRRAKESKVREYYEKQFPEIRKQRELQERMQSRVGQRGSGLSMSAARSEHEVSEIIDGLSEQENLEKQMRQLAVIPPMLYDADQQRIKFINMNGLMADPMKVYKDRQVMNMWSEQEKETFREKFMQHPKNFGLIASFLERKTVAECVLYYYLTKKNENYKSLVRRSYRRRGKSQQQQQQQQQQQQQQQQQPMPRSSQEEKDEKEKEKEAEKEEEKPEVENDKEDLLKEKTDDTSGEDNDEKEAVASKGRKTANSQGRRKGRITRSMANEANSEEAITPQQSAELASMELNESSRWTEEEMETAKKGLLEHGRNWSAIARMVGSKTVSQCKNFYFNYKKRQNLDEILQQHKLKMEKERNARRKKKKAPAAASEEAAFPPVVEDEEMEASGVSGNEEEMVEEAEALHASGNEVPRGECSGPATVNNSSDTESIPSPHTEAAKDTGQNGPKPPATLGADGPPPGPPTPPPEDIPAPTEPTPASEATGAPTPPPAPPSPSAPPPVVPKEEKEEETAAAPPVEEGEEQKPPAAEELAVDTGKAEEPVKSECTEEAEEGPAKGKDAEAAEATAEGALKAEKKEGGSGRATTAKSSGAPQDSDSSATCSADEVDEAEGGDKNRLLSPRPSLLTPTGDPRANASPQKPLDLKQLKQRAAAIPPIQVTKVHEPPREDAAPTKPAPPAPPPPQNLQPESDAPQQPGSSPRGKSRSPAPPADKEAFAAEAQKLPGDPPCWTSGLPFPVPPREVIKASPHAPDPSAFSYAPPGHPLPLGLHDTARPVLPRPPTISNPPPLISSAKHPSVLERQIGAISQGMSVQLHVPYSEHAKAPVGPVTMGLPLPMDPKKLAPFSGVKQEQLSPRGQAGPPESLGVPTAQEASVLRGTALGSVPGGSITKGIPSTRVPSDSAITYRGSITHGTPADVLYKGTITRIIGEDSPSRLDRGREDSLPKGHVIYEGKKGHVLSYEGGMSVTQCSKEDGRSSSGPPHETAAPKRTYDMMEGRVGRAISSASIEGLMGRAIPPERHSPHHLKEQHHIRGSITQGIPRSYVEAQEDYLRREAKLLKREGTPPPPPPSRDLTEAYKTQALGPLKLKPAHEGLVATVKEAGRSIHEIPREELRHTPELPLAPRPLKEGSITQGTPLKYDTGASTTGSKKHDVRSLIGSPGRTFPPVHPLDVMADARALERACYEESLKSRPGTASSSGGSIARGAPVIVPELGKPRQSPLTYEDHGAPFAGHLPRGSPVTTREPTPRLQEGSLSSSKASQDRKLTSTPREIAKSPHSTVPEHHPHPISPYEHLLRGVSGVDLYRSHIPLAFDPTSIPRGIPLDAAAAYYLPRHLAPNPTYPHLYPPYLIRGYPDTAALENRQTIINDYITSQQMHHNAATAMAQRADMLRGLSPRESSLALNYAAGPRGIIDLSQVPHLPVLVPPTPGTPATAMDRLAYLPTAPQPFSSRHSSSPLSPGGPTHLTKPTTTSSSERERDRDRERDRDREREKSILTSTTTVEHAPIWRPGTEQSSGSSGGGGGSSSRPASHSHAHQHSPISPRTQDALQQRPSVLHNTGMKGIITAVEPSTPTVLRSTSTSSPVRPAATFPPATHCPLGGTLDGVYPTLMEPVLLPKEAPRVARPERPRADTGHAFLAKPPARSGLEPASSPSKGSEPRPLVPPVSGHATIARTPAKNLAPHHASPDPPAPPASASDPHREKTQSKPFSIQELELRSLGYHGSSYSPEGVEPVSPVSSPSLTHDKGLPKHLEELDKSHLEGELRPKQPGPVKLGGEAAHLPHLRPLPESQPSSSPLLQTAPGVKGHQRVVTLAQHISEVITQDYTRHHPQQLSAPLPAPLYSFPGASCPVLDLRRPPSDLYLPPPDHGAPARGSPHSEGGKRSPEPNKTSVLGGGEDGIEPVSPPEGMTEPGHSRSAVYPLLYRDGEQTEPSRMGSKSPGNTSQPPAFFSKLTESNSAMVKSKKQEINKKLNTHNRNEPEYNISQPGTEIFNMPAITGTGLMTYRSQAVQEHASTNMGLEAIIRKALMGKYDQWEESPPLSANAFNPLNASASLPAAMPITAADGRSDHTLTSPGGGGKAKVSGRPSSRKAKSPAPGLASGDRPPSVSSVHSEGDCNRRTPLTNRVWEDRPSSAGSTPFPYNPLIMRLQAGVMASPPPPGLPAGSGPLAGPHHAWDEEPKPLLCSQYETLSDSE
# Method Description: Inhibition of human recombinant HDAC3/NCoR2 using fluorophore-conjugated substrate Boc-L-Lys(Ac)-AMC
pIC50: −log10 of the molar value.
Label YES when pIC50 >= 7; otherwise NO.

# count of solved cases: 3
Given Smiles	Assayed Target	Label
O=C(CCCCCCC(=O)Nc1cnn(Cc2ccccc2)c1)NO	Histone deacetylase 3/Nuclear receptor corepressor 2 (HDAC3/NCoR2) (Homo sapiens)	YES
O=C(CCCCCCC(=O)Nc1cnn(Cc2ccc([N+](=O)[O-])cc2)c1)NO	Histone deacetylase 3/Nuclear receptor corepressor 2 (HDAC3/NCoR2) (Homo sapiens)	YES
[N-]=[N+]=NCc1cc(N=[N+]=[N-])cc(C(=O)Nc2ccc(Cn3cc(NC(=O)CCCCCCC(=O)NO)cn3)cc2)c1	Histone deacetylase 3/Nuclear receptor corepressor 2 (HDAC3/NCoR2) (Homo sapiens)	NO

For the next question, use this molecule.
[Q] Threshold query (pIC50 >= 7) on [N-]=[N+]=Nc1ccc(Cn2cc(NC(=O)CCCCCCC(=O)NO)cn2)cc1
[A] YES

---

Target protein (sequence): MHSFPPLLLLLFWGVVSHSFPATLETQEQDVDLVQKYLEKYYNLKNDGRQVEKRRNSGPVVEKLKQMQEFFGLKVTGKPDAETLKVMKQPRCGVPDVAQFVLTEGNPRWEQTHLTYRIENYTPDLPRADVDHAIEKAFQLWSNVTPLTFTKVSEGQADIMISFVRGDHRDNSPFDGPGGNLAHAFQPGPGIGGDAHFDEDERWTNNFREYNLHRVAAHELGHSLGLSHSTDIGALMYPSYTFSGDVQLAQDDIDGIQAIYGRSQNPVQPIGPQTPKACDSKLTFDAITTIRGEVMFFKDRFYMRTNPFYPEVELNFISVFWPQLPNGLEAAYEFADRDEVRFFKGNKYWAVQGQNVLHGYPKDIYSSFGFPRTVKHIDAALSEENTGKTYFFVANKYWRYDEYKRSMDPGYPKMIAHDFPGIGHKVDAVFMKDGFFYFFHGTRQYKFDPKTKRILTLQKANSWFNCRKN
Parameter Measured: pIC50
pIC50 (log units): -log10 of the concentration in mol/L.

[Q] What measured pIC50 goes with [N-]=[N+]=NCc1cc(N=[N+]=[N-])cc(C(=O)Nc2ccc(-c3cc(C(=O)NCCCCCCC(=O)NO)no3)cc2)c1 ?
[A] 3.97
